# SYSTEM_NAME: Jack Bean α-mannosidase (Canavalia ensiformis)
# Construct: purchased Sigma
# Sequence (C0HJB3 whole entry): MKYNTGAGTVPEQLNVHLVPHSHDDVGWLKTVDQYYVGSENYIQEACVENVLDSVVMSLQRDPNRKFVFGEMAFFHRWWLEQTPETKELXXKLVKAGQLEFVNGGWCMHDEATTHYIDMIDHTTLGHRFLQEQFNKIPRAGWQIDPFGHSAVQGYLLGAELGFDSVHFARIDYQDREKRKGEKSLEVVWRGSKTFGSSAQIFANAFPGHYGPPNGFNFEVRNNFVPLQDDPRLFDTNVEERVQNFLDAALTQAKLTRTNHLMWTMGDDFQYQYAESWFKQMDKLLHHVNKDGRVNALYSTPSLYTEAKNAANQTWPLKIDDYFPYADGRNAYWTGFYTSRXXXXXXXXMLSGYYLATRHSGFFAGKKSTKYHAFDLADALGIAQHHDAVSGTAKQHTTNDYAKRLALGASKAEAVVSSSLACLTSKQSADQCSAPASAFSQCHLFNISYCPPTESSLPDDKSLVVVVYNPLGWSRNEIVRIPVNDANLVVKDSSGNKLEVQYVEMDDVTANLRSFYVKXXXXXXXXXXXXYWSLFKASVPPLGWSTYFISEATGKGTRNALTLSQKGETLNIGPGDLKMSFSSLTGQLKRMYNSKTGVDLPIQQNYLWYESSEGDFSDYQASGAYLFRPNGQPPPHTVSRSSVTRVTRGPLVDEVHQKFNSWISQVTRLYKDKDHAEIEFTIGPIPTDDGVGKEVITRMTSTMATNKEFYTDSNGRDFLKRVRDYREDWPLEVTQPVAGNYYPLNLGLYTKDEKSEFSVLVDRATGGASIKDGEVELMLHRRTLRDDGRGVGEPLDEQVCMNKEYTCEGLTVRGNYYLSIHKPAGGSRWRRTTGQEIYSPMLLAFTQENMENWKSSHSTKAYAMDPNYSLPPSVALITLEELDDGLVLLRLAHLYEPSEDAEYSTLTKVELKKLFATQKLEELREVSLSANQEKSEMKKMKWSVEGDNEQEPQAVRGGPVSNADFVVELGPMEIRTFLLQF
# ASSAY_REMARKS: Inhibition of Jack Bean α-mannosidase
# Format: biochemical
# MEASUREMENT_PARAMETERS: p-nitrophenyl α-D-mannopyranoside, pH 5.0, 20 min 37° C.; read-out: IC50 for inhibition of J.B. α-mannosidase
REPORTED_METRIC: IC50
Put your answer as a value accompanied by its unit after it.

Consider the reported IC50 for these molecules:
O=C(OC1CN2CCCC(O)C2C1O)c1ccc([N+](=O)[O-])cc1 (stereo not drawn) :: 123 µM
O=C(OC1CN2CCCC(O)C2C1O)c1ccccc1 (stereo not drawn) :: 350 µM

For the next question, use this molecule.
Query: Give the reported IC50 for CCCCCCCC(=O)OC1CN2CCCC(O)C2C1O (stereo not drawn) (system: Jack Bean α-mannosidase (Canavalia ensiformis)).
Response: 123 µM

---

# SYSTEM_NAME: MDAY-D2 lysosomal α-mannosidases (Mus musculus, UniProt O09159)
# Construct: 10 μl MDAY-D2 tumor cell lysate; endogenous in cells; host or cells: MDAY-D2 tumor cells (lysate)
# Sequence (O09159 50-1013): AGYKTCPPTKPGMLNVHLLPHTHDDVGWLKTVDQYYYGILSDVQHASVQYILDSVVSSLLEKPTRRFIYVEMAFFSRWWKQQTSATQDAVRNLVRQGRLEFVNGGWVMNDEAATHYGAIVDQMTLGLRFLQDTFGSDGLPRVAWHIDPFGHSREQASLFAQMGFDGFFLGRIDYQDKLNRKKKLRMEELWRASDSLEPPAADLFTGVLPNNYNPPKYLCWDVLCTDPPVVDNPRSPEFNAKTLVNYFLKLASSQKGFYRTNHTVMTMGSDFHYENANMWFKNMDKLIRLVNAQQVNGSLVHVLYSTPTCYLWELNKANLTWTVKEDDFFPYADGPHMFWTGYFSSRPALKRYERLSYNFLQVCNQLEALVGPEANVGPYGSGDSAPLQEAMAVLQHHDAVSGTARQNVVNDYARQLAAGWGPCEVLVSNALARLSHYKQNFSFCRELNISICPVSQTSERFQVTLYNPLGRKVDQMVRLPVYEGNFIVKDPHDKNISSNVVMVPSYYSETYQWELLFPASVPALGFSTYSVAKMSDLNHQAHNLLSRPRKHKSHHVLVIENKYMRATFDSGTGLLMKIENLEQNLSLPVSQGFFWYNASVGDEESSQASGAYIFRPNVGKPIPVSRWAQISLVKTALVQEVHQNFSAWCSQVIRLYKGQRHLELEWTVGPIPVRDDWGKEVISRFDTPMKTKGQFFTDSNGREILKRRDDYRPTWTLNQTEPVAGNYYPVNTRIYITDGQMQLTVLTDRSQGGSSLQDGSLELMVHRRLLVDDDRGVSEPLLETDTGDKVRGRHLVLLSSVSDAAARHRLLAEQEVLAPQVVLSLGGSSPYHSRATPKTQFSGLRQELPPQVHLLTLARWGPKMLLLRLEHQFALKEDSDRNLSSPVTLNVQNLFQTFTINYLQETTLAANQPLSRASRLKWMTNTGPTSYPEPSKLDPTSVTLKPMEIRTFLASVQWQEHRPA
# ASSAY_REMARKS: Inhibition of lysosomal α-mannosidases in MDAY-D2 tumor cell lysate
# Assay type: biochemical
# MEASUREMENT_PARAMETERS: MDAY-D2 tumor cell lysate, pH 5.0; read-out: IC50 for inhibition of MDAY-D2 α-mannosidase
# Procedure: SW and analogues were serially diluted into a volume of 75 μl in 96 well Elisa plates followed by the addition of 37.5 μl of 100 mM sodium acetate pH 5.0 and 37.5 μl of 10 mM p-nitrophenyl α-D-mannospyranoside. Jack Bean α-mannosidase (Sigma, 38 U/ml) was diluted 1/800, 10 μl was added to each well and the plates were incubated for 20 min at 37° C. The reaction was stopped by the addition of 150 μl of 0.5M sodium carbonate and formation of p-nitrophenol was measured with a plate set at 405 nm. […]
Field 'label' (enum: rule met / rule not met). Set to rule met when IC50 is strictly under 40 µM; else rule not met.

CCCCCCCCCCCCCCCC(=O)OC1CCCN2CC(O)C(O)C12 (centres unmarked) :: rule not met
Cc1ccc(C(=O)O[C@@H]2CN3CCC[C@@H](O)[C@@H]3[C@@H]2O)cc1 :: rule not met
CCCC(=O)OC1CN2CCCC(O)C2C1O (centres unmarked) :: rule met

Query: Does this compound meet the criterion IC50 < 40 µM? CCCCCCCC(=O)OC1CN2CCCC(O)C2C1O (centres unmarked)
Response: rule met

Query: And what about the compound CCCCCCCCCCCCCC(=O)OC1CCCN2CC(O)C(O)C12 (centres unmarked) ?
Response: rule not met

Query: # iterate: O=C(OC1CN2CCCC(O)C2C1O)c1ccc([N+](=O)[O-])cc1 (centres unmarked)
Response: rule met

Query: # repeat for OC1CN2C[C@@H](O)[C@@H](O)[C@H]2[C@H](O)C1O (some centres unmarked) [6,7-dihydroxy-SW]
Response: rule met

Query: Do the same for O=C(OC1CN2CCCC(O)C2C1O)c1ccccc1 (centres unmarked) please
Response: rule not met

---

# SYSTEM_NAME: rat liver Golgi α-mannosidase II (Rattus norvegicus)
# Construct: The assay for rat liver Golgi α-mannosidase II; from tissue; host or cells: rat liver (Golgi)
# Sequence (P28494 whole entry): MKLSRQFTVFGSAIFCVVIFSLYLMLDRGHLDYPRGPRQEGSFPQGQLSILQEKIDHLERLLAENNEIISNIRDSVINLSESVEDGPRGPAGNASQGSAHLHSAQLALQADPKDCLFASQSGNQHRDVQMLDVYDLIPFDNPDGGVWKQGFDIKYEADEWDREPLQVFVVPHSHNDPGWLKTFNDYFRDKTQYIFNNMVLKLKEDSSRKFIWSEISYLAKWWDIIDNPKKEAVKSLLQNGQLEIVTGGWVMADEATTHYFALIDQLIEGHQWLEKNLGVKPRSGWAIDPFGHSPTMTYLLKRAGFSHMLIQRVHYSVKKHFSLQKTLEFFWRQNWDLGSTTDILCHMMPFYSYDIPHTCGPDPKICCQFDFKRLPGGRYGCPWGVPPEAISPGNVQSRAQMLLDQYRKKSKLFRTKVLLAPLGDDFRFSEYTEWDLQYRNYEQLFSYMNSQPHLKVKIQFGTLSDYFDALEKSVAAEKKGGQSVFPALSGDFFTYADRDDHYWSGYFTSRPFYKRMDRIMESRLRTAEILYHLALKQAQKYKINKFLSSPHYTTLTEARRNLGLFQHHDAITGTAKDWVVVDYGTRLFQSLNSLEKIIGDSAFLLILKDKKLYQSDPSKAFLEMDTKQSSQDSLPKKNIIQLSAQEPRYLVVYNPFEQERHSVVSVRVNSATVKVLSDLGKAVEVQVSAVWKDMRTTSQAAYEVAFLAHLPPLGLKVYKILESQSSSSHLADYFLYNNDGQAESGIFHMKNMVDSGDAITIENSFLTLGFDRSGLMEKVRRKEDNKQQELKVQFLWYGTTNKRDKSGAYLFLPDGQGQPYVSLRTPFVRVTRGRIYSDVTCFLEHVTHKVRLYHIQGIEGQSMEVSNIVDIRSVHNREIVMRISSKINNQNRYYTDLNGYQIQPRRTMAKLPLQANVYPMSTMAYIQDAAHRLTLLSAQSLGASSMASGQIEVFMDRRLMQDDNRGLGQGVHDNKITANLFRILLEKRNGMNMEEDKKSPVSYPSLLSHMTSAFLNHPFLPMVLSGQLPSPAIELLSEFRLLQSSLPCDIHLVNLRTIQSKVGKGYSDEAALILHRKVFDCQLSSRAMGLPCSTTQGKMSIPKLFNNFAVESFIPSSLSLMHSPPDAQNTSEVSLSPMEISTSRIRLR
# ASSAY_REMARKS: Rat liver Golgi α-mannosidase II assay
# Format: biochemical
# MEASUREMENT_PARAMETERS: ratio of lyso to ManII IC50 values
Quick rule for you: Ratio at 0.9 or higher means met, lower means not met.

See these solved cases before continuing.
CN1C[C@@H](O)[C@@H](O)[C@H]1CO [GD003, N-methyl-DIL] :: not met
CCCN1C[C@@H](O)[C@@H](O)[C@H]1CO [GD006, N-propyl-DIL] :: not met
OC[C@@H]1[C@H](O)[C@H](O)CN1CC1CC1 [GD008, N-cyclo-propyl-methyl-DIL] :: not met
CC(O)C1[C@H](O)[C@H](O)CN1CC1CC1 (some centres unmarked) [GD013] :: met
CCN1C[C@@H](O)[C@@H](O)[C@H]1CO [GD005, N-ethyl-DIL] :: not met

Query: Is Ratio at least 0.9? Consider OC[C@@H]1[C@H](O)[C@H](O)CN1Cc1ccccc1 [GD002]
Response: met

Query: Also, CC(O)C1[C@H](O)[C@H](O)CN1CC1CCCCC1 (some centres unmarked) [GD014] please.
Response: met

Query: What do you have for CCCCN1C[C@@H](O)[C@@H](O)[C@H]1CO [GD004, N-butyl-DIL] ?
Response: not met
